Each recorded value in this set is attributed to ChEMBL document CHEMBL5143595.

# Test system: HCT-15
# assay.info: Antiproliferative activity against human HCT-15 cells assessed as inhibition of cell growth at 10 uM incubated for 48 hrs by SRB assay relative to control
# Assay type: functional
# Parameters: scale not given: the % may be the effect or the level left
Measured Activity of individual entries
measured.quantity: Activity (%)

INSERT INTO assay_data (compound, observed) VALUES
  ('CCCCCCNC(=O)CN1CCCCN(CC(=O)NC(C)(C)C)C(=O)c2cccc(c2)-c2cccc(c2)C1=O', 32.4),
  ('CCCCCCCCCCNC(=O)C(c1ccc(F)cc1)N1CCCCN(CC(=O)NC(C)(C)C)C(=O)c2cccc(c2)-c2cccc(c2)C1=O (racemic)', 67.2),
  ('CCCCCCCCCCCCNC(=O)C(c1ccc(OC)cc1C)N1CCCCN(CC(=O)NC(C)(C)C)C(=O)c2cccc(c2)-c2cccc(c2)C1=O (racemic)', 28),
  ('CCCCCCCCCCCCNC(=O)C(c1ccc(F)cc1)N1CCCCN(CC(=O)NC(C)(C)C)C(=O)c2cccc(c2)-c2cccc(c2)C1=O (racemic)', 42.9),
  ('CCCCCCCCCCCCNC(=O)C(c1ccc(Cl)cc1)N1CCCCN(CC(=O)NC(C)(C)C)C(=O)c2cccc(c2)-c2cccc(c2)C1=O (racemic)', 24.3),
  ('CCCCCCCCCCCCNC(=O)C(c1ccc(O)cc1OC)N1CCCCN(CC(=O)NC(C)(C)C)C(=O)c2cccc(c2)-c2cccc(c2)C1=O (racemic)', 27.3),
  ('CCCCCCCCCCCCNC(=O)C(c1ccccc1)N1CCCCN(CC(=O)NC(C)(C)C)C(=O)c2cccc(c2)-c2cccc(c2)C1=O (racemic)', 27.7),
  ('CCCCCCCCCCCCNC(=O)C(c1ccc(OC)cc1)N1CCCCN(CC(=O)NC(C)(C)C)C(=O)c2cccc(c2)-c2cccc(c2)C1=O (racemic)', 22),
  ('CCCCCCCCCNC(=O)CN1CCCCN(CC(=O)NC(C)(C)C)C(=O)c2cccc(c2)-c2cccc(c2)C1=O', 55.1),
  ('CCCCCCCCCCCCNC(=O)C(c1ccc(SC)cc1)N1CCCCN(CC(=O)NC(C)(C)C)C(=O)c2cccc(c2)-c2cccc(c2)C1=O (racemic)', 18.3),
  ('CCCCCCCCCCNC(=O)C(c1ccoc1)N1CCCCN(CC(=O)NC(C)(C)C)C(=O)c2cccc(c2)-c2cccc(c2)C1=O (racemic)', 38.5),
  ('CCCCCCCCCCCCNC(=O)C(c1cc(C)ccc1F)N1CCCCN(CC(=O)NC(C)(C)C)C(=O)c2cccc(c2)-c2cccc(c2)C1=O (racemic)', 31.7),
  ('CCCCCCCCCCCCNC(=O)C(c1ccc([N+](=O)[O-])cc1)N1CCCCN(CC(=O)NC(C)(C)C)C(=O)c2cccc(c2)-c2cccc(c2)C1=O (racemic)', 22.8);

---

# System: U-251
# assay.info: Antiproliferative activity against human U-251 cells assessed as inhibition of cell growth at 10 uM incubated for 48 hrs by SRB assay relative to control
# Assay type: functional
# Parameters: scale not given: the % may be the effect or the level left
measured.quantity: Activity (%)

INSERT INTO assay_data (compound, observed) VALUES
  ('CCCCCCCCCCCCNC(=O)C(c1ccc(O)cc1OC)N1CCCCN(CC(=O)NC(C)(C)C)C(=O)c2cccc(c2)-c2cccc(c2)C1=O (racemic)', 48.5),
  ('CCCCCCCCCCCCNC(=O)C(c1ccoc1)N1CCCCN(CC(=O)NC(C)(C)C)C(=O)c2cccc(c2)-c2cccc(c2)C1=O (racemic)', 27.5),
  ('CCCCCCCCCCNC(=O)C(c1ccco1)N1CCCCN(CC(=O)NC(C)(C)C)C(=O)c2cccc(c2)-c2cccc(c2)C1=O (racemic)', 25.5),
  ('CCCCCCCCCCCCNC(=O)C(c1ccc(F)cc1)N1CCCCN(CC(=O)NC(C)(C)C)C(=O)c2cccc(c2)-c2cccc(c2)C1=O (racemic)', 76.9),
  ('CCCCCCCCCCCCNC(=O)C(c1ccc(C)cc1)N1CCCCN(CC(=O)NC(C)(C)C)C(=O)c2cccc(c2)-c2cccc(c2)C1=O (racemic)', 48),
  ('CCCCCCCCCCNC(=O)C(c1ccc(F)cc1)N1CCCCN(CC(=O)NC(C)(C)C)C(=O)c2cccc(c2)-c2cccc(c2)C1=O (racemic)', 19.3),
  ('CCCCCCNC(=O)CN1CCCCN(CC(=O)NC(C)(C)C)C(=O)c2cccc(c2)-c2cccc(c2)C1=O', 58.5),
  ('CCCCCCCCCCCCNC(=O)C(c1ccc(OC)cc1C)N1CCCCN(CC(=O)NC(C)(C)C)C(=O)c2cccc(c2)-c2cccc(c2)C1=O (racemic)', 23.1),
  ('CCCCCCCCCCCCNC(=O)C(c1ccc(OC)cc1)N1CCCCN(CC(=O)NC(C)(C)C)C(=O)c2cccc(c2)-c2cccc(c2)C1=O (racemic)', 50.1),
  ('CCCCCCCCCCNC(=O)C(c1ccoc1)N1CCCCN(CC(=O)NC(C)(C)C)C(=O)c2cccc(c2)-c2cccc(c2)C1=O (racemic)', 27.5),
  ('CCCCCCCCCCCNC(=O)CN1CCCCN(CC(=O)NC(C)(C)C)C(=O)c2cccc(c2)-c2cccc(c2)C1=O', 10.8),
  ('CCCCCCCCCNC(=O)CN1CCCCN(CC(=O)NC(C)(C)C)C(=O)c2cccc(c2)-c2cccc(c2)C1=O', 16),
  ('CCCCCCCCCCCCNC(=O)C(c1ccc(SC)cc1)N1CCCCN(CC(=O)NC(C)(C)C)C(=O)c2cccc(c2)-c2cccc(c2)C1=O (racemic)', 20),
  ('CCCCCCCCCCCCNC(=O)C(c1ccco1)N1CCCCN(CC(=O)NC(C)(C)C)C(=O)c2cccc(c2)-c2cccc(c2)C1=O (racemic)', 21.9);

---

Measured Activity values are reported for all entries that follow.
# Tested on: U-251
# assay.info: Antiproliferative activity against human U-251 cells assessed as inhibition of cell growth at 10 uM incubated for 48 hrs by SRB assay relative to control
# Assay type: functional
# Parameters: scale not given: the % may be the effect or the level left
measured.quantity: Activity (%)

INSERT INTO results (compound, measured_quantity, observed) VALUES
  ('CCCCCCCCCCCCNC(=O)C(c1ccc(Cl)cc1)N1CCCCN(CC(=O)NC(C)(C)C)C(=O)c2cccc(c2)-c2cccc(c2)C1=O (racemic)', 'Activity', 71.3),
  ('CCCCCCCCCCNC(=O)CN1CCCCN(CC(=O)NC(C)(C)C)C(=O)c2cccc(c2)-c2ccc(O)c(c2)C1=O', 'Activity', 49.3),
  ('CCCCCCCNC(=O)CN1CCCCN(CC(=O)NC(C)(C)C)C(=O)c2cccc(c2)-c2cccc(c2)C1=O', 'Activity', 99.2),
  ('CCCCCCCCNC(=O)CN1CCCCN(CC(=O)NC(C)(C)C)C(=O)c2cccc(c2)-c2cccc(c2)C1=O', 'Activity', 20.5),
  ('CCCCCCCCCCCCNC(=O)C(c1ccc(C(F)(F)F)cc1)N1CCCCN(CC(=O)NC(C)(C)C)C(=O)c2cccc(c2)-c2cccc(c2)C1=O (racemic)', 'Activity', 47.2),
  ('CCCCCCCCCCNC(=O)CN1CCCCN(CC(=O)NC(C)(C)C)C(=O)c2cccc(c2)-c2cccc(c2)C1=O', 'Activity', 16.1),
  ('CCCCCCCCCCCCNC(=O)C(c1cc(C)ccc1F)N1CCCCN(CC(=O)NC(C)(C)C)C(=O)c2cccc(c2)-c2cccc(c2)C1=O (racemic)', 'Activity', 15.7),
  ('CCCCCCCCCCCCNC(=O)C(c1cc(OC)c(OC)c(OC)c1)N1CCCCN(CC(=O)NC(C)(C)C)C(=O)c2cccc(c2)-c2cccc(c2)C1=O (racemic)', 'Activity', 11.4),
  ('CCCCCCCCCCCCNC(=O)C(c1ccc([N+](=O)[O-])cc1)N1CCCCN(CC(=O)NC(C)(C)C)C(=O)c2cccc(c2)-c2cccc(c2)C1=O (racemic)', 'Activity', 34.5);

---

# System: K562
# assay.info: Antiproliferative activity against human K562 cells assessed as inhibition of cell growth incubated for 48 hrs by SRB assay
# Type: functional, cell-based
# protocol.conditions: K562, 48 h
measured.quantity: IC50 (µM)

INSERT INTO measurements (molecule, observed) VALUES
  ('COc1cc([C@@H]2c3cc4c(cc3[C@@H](O[C@@H]3O[C@@H]5CO[C@@H](C)O[C@H]5[C@H](O)[C@H]3O)[C@H]3COC(=O)[C@H]23)OCO4)cc(OC)c1O [ETOPOSIDE]', 11.3),
  ('CCCCCCCNC(=O)CN1CCCCN(CC(=O)NC(C)(C)C)C(=O)c2cccc(c2)-c2cccc(c2)C1=O', 8.2),
  ('CCCCCCCCCCCCNC(=O)CN1CCCCN(CC(=O)NC(C)(C)C)C(=O)c2cccc(c2)-c2cccc(c2)C1=O', 4);
